# System: HT29
# SETUP_CONDITIONS: 72 h, relative to DMSO; 10 µM
Where a name gives a salt, the structure may show the parent alone.
ASSAY_METRIC: Relative cell viability (%) (%)
One number for each entry, in %.

Before answering, review these 3 worked examples.
• Cc1cccc(Cc2c[nH]cn2)c1C [Detomidine HCl] = 118.5
• OC[C@H]1O[C@@H](c2ccc(Cl)c(Cc3ccc(O[C@H]4CCOC4)cc3)c2)[C@H](O)[C@@H](O)[C@@H]1O = 75.21
• COc1c2occc2cc2ccc(=O)oc12 = 170.4

Now look at this entry.
Enquiry: Bench note: what Relative cell viability (%) did CC1Cc2ccccc2N1NC(=O)c1ccc(Cl)c(S(N)(=O)=O)c1 (stereo not shown) [Indapamide] show?
Return: 71.61

Cited source: paper PMC11672294
